Data credit: ChEMBL document CHEMBL4007470

- EXPERIMENT: Inhibition of human DNA polymerase-gamma
pIC50: −log10 of the molar value.
OBSERVATION_TYPE: pIC50

Ask | Reported pIC50 for C[C@@]1(F)[C@H](O)[C@@H](COP(=O)(O)OP(=O)(O)OP(=O)(O)O)O[C@H]1c1cnc2c(N)ncnn12 : what is it?
Reply | < 3.70

* * *

In this section, each of the molecules is paired with its reported permeability.
- EXPERIMENT: Permeability of the compound from basolateral to apical side in human Caco2 cells at 10 uM
- Format: ADME, cell-based, Caco-2
- SETUP_CONDITIONS: caco-2, 10 µM, 10 µM
// return numeric value only (unit: ×10⁻⁶ cm/s, not printed)

{"MOLECULE": "CC(C)OC(=O)C1(NP(=O)(OC[C@H]2O[C@@H](c3cnc4c(N)ncnn34)[C@](C)(F)[C@@H]2O)Oc2ccccc2)CCC1 (stereo in doubt; 53)", "RESULT_UNIT": "×10⁻⁶ cm/s", "READOUT_VALUE": 9.3}

Next:
Ask | Record request: permeability value, item CC(C)OC(=O)C1(NP(=O)(OC[C@H]2O[C@@H](c3cnc4c(N)ncnn34)[C@](C)(F)[C@@H]2O)Oc2ccccc2)CCC1 (stereo in doubt; 54)
Reply | 9.2
